Target: PPARγ ligand binding domain (LBD) (amino acids 195-475) (Homo sapiens, UniProt P37231)
Construct: polyHis; made in house; host or cells: Escherichia coli
Sequence (P37231 195-475 isoform P37231-2): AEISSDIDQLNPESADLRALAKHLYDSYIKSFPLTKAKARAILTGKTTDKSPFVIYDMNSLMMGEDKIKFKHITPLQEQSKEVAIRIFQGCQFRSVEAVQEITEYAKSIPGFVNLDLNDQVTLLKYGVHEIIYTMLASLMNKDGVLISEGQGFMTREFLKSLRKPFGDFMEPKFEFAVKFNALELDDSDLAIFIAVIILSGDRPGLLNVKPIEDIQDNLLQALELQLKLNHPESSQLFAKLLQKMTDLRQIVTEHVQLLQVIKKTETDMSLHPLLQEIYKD
Experiment: PPAR-γ binding assay (spin plate / gel filtration binding assay, displacement of [3H]BRL 49653)
Conditions: read-out: IC50 range in the PPAR-γ Binding Assay
In this section, each of the molecules is paired with its reported IC50.
Metric Name: IC50

{"Molecule": "COc1cccc(Cn2c(C(=O)O)c(-c3ccc(OCC4CC4)cc3)c3ccccc32)c1 [Example 305]", "Observed Measurement": "0.1 to 9.99 nM"}
{"Molecule": "COc1cccc(Cn2c(C(=O)O)c(-c3ccc(OCC4CC4)cc3)c3cc(OCC(=O)O)ccc32)c1 [Example 267]", "Observed Measurement": "10 to 10000 nM"}
{"Molecule": "COc1ccc(-c2c(C(=O)O)n(CS(=O)(=O)c3ccccc3)c3ccccc23)cc1 [Example 282]", "Observed Measurement": "10 to 10000 nM"}
{"Molecule": "O=C(O)c1c(-c2ccco2)c2ccccc2n1Cc1cccc(C(F)(F)F)c1 [Example 237]", "Observed Measurement": "0.1 to 9.99 nM"}
{"Molecule": "COc1cccc(Cn2c(C(=O)O)c(-c3ccc(C(C)(C)C)cc3)c3cccc(NC(=O)NC4CC4)c32)c1 [Example 291]", "Observed Measurement": "10 to 10000 nM"}
{"Molecule": "O=C(O)c1c(C=C2CC2)c2ccccc2n1Cc1cccc(C(F)(F)F)c1 [Example 231]", "Observed Measurement": "0.1 to 9.99 nM"}

Data provenance: patent US6787651B2
